Test: chemical genetic growth profiling, strain panel (AID 1159580);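 further: tested at 20 µM; growth read once vehicle control cultures reached saturation at 30 °C; 1 = growth at the plate median or of vehicle wells; lower values mean less growth of the strain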
Settings: S. cerevisiae deletion strains, growth OD, locus YNL128W, strain TEP1
In all, about 5,500 compounds went through this assay and about 2,000 (36%) were called active. Inconclusive results (about 18%) are left out. No stated cut-off is given here; in the data, active means normalized growth mostly below about 0.91 (no sharp cut-off); inconclusive means no clear call, values can overlap the other calls; inactive means mostly above about 0.92. Some of the results follow.
Give your call using only these classes: class 1 (active), class 0 (inactive)

Ask | Please let me know the test result on file for CC1CCC2(OC1)OC1CC3C4CC[C@H]5C[C@@H](O)CC[C@]5(C)C4CC(=O)[C@]3(C)C1C2C (stereo partly specified) .
Reply | class 0

Ask | Dear all, I need the recorded test outcome for CC1=CC(=O)C2=C(C)CC[C@@H]3[C@H](OC(=O)[C@H]3C)[C@@H]12 , thank you.
Reply | class 0

Ask | // outcome(item) with item = CC(C)(C)NCC(O)c1cc(O)cc(O)c1 (stereo unspecified)
Reply | class 0

Ask | Kindly provide the recorded test outcome for the following compound: O=C1C=C2C(=CCOC2O)O1 (stereo unspecified)
Reply | class 1

Ask | Check the results log: what was the call for NC(=O)CN1CCCC1=O ?
Reply | class 0

Ask | What call does the record list for COc1ccc(-c2oc3c(CC=C(C)C)c(O[C@@H]4O[C@H](CO)[C@@H](O)[C@H](O)[C@H]4O)cc(O)c3c(=O)c2O[C@@H]2O[C@@H](C)[C@H](O)[C@@H](O)[C@H]2O)cc1 ?
Reply | class 0

Ask | # outcome recorded in this test, key = O=[N+]([O-])c1ccc(OCCCOc2ccc([N+](=O)[O-])cc2)cc1
Reply | class 0

Ask | Called result for COc1cc(C=C(C#N)C#N)cc(O)c1O
Reply | class 0

Ask | Entry CC(C)c1c(O)ccc2c1CCC1C(C)(C)CCC[C@]21C (stereo partly specified) : call = ?
Reply | class 1

Ask | Identify the outcome logged in this assay for the compound shown: COC(=O)C1OC(=O)C2OC23C1(C)CCC1C2(C)C(OC(C)=O)CC(OC(C)=O)C(C)(C)C2CC(=O)C13C (stereo unspecified)
Reply | class 0

Ask | Query: recorded result category for COc1ccc(-c2cc(=O)c3c(O)cc(O[C@H]4O[C@H](CO[C@@H]5O[C@@H](C)[C@H](O)[C@@H](O)[C@H]5O)[C@@H](O)[C@H](O)[C@H]4O)cc3o2)cc1 in this test
Reply | class 0

Ask | State the result this test recorded for N#C/C(=C\c1ccc(O)c(O)c1)C(=O)NCCCc1ccccc1 .
Reply | class 0

Ask | Please share the test call associated with COc1cc(/C=C(\C#N)C(=O)c2ccc(O)c(O)c2)cc(I)c1O .
Reply | class 0

Ask | Per the assay record, what outcome was assigned to CCOC(=O)NC1=C(C2CC2)C(=O)C(NC(=O)OCC)=C(C2CC2)C1=O ?
Reply | class 0

Ask | Entry CCOC(=O)c1c(C)cc(OC)cc1O : call = ?
Reply | class 0

Ask | Hello, I am checking results. What call was entered for CCN(Cc1ccncc1)C(=O)C(CO)c1ccccc1 (stereo unspecified) ?
Reply | class 0

Ask | // outcome(item) with item = CCCCOc1cc(C(=O)NCCN(CC)CC)c2ccccc2n1
Reply | class 0

Ask | Could you check what this test reported for O=C(Cc1cccs1)NC1C(=O)N2C(C(=O)[O-])=C(C[n+]3ccccc3)CSC12 (stereo unspecified) ?
Reply | class 0

Ask | Recorded test outcome, item COC(=O)c1c(C)cc(OC)cc1O
Reply | class 0

Ask | State the result this test recorded for CC(C)(O)[C@@H]1Cc2cc3ccc(=O)oc3cc2O1 .
Reply | class 0

Ask | Recorded test outcome, item C[N+](C)(C)CC(O)CC(=O)O (stereo unspecified)
Reply | class 0
